Each recorded value in this set is attributed to paper PMC6445170.

Kindly supply the reported % Inhibition of VEGFR-2 enzyme values for the records listed here.
molecular target: VEGFR-2 (Homo sapiens, UniProt P35968); construct: gene KDR; not described; endogenous activity said to be determined in MCF-7 cells, but compounds were incubated with 'enzyme' (AlphaScreen); assay: AlphaScreen kinase assay, phosphotyrosine antibody; type: cell-based; conditions: 5 min preincubation, room temperature; VEGFR-2 activity determined in MCF-7 cells
Sequence (P35968 20-1356): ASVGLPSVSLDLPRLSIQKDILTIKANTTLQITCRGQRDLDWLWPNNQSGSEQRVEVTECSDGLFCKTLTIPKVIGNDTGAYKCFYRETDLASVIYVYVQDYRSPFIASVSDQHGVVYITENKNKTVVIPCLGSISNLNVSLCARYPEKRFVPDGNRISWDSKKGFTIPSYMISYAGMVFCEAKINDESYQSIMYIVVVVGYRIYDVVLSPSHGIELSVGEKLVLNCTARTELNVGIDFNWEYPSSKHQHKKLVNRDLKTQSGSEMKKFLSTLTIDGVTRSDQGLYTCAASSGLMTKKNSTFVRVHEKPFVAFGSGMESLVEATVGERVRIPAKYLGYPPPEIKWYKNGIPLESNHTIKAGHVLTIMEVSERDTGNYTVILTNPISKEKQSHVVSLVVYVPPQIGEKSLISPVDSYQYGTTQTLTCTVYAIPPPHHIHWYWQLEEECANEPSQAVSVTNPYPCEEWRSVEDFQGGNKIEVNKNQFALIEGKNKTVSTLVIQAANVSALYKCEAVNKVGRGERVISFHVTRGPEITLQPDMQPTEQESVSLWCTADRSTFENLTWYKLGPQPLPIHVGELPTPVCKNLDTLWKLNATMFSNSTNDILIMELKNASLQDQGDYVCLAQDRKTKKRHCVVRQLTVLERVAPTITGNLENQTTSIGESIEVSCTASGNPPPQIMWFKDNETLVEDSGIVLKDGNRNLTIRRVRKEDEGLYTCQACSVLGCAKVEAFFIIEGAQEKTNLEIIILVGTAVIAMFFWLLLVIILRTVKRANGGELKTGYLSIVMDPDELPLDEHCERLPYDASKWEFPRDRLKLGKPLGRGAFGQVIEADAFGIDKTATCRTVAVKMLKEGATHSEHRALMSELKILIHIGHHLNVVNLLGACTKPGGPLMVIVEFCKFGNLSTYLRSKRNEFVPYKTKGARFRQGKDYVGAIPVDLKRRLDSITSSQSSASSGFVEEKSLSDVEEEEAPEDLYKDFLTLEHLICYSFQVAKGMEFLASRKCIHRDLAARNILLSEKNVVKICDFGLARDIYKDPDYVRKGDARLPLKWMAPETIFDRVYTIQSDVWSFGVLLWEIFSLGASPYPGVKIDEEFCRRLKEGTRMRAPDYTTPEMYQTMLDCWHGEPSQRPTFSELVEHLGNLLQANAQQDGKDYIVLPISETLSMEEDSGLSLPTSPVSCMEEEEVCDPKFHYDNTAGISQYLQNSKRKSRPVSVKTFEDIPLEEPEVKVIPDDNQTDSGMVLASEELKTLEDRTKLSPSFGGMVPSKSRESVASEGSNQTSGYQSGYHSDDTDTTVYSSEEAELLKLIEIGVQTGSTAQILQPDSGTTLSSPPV
Answers are plain numbers, in %.

Examples from the recorded data:
INSERT INTO measurements (compound, unit_label, quantitative_readout) VALUES
  ('NNC(=O)CSc1nc2cc3ccccc3cc2c(=O)n1-c1ccc(S(N)(=O)=O)cc1 [compound 5]', '%', 68.44),
  ('NS(=O)(=O)c1ccc(-n2c(SCC(=O)NN=Cc3ccc4c(c3)OCO4)nc3cc4ccccc4cc3c2=O)cc1 [compound 11]', '%', 71.29);

Would you be so kind as to report % Inhibition of VEGFR-2 enzyme for each listed record?
1. NS(=O)(=O)c1ccc(-n2c(SCC(=O)NN=Cc3ccc(Br)cc3)nc3cc4ccccc4cc3c2=O)cc1 [compound 10]
2. Cc1ccc(C)c(C=NNC(=O)CSc2nc3cc4ccccc4cc3c(=O)n2-c2ccc(S(N)(=O)=O)cc2)c1 [compound 6]

[64.89, 69.95]

====

Kindly supply the reported IC50 values for the records listed here.
target: VEGFR-2 (Homo sapiens, UniProt P35968); construct: not described; endogenous activity said to be determined in MCF-7 cells, but compounds were incubated with 'enzyme' (AlphaScreen); experiment: AlphaScreen kinase assay, phosphotyrosine antibody; conditions: 5 min preincubation, room temperature; VEGFR-2 activity determined in MCF-7 cells; read-out: IC50 on VEGFR-2 enzyme (μm)
One number for each entry, in nM.

Would you be so kind as to report IC50 for each listed record?
1. NS(=O)(=O)c1ccc(-n2c(SCC(=O)N3NC(=O)CC3=O)nc3cc4ccccc4cc3c2=O)cc1
2. CCOC(=O)c1cnn(C(=O)CSc2nc3cc4ccccc4cc3c(=O)n2-c2ccc(S(N)(=O)=O)cc2)c1N
3. Cc1nn(C(=O)CSc2nc3cc4ccccc4cc3c(=O)n2-c2ccc(S(N)(=O)=O)cc2)c(N)c1C#N
4. NS(=O)(=O)c1ccc(-n2c(SCC(=O)NN=Cc3ccc(Cl)cc3Cl)nc3cc4ccccc4cc3c2=O)cc1

1. 860
2. 830
3. 1040
4. 640
